Data origin, for the record: patent US20220380463A1

- Subject of test: T1, human CD3 on CD3+ Jurkat cells (human, UniProt P07766 23-207)
- T1 construct: whole, on cells; Native CD3 complex on cells; the other CD3 chains are not specified for this assay; also called Human CD3+ Jurkat
- Experiment: flow cytometry, 100 nM IgG on CD3+ Jurkat cells, pH 7.4
Measured parameter: MFI pH 7.4 (MFI)
API: value field is a number in MFI; no unit string.

Guide cases for MFI pH 7.4, answers given:
1. SAD10318_P03_D08 (ADI-48604) (antibody, V domains shown, IgG; also called Ab198) VH: QVQLVQSGAEVKKPGASVKVSCKASGFNIKDYYMHWVRQAPGQRLEWMGWIDLENANTIYDAKFQGRVTITRDTAASTAYMELSSLRSEDTAVYYCARDHYHRYFYDHWGQGTLVTVSS VL: DIVMTQSPDSLAVSLGERATINCKSSQSLLNAHTGKNHLAWYQQKPGQPPKLLIYWASTRESGVPDRFSGSGSGTDFTLTISSLQAEDVAVYYCKQSYSRRTFGGGTKVEIK; 43
2. LAD9965_P01_H07 (ADI-48666) (antibody, V domains shown, IgG; also called Ab177) VH: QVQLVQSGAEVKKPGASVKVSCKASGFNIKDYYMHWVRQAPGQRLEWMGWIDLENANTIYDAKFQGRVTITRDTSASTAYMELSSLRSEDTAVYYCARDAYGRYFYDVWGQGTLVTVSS VL: DIVMTQSPDSLAVSLGERATINCKSSQSLLNARTGHNYLAWYQQKPGQPPKLLIYWASTRESGVPDRFSGSGSGTDFTLTISSLQAEDVAVYYCKQSYSRRTFGGGTKVEIK; 4800

As a next step, examine the binder that follows.
Entry SAD10318_P03_C08 (ADI-48603) (antibody, V domains shown, IgG; also called Ab197) VH: QVQLVQSGAEVKKPGASVKVSCKASGFNIKDYYMHWVRQAPGQRLEWMGWIDLENANTIYDAKFQGRVTITRDTSASTAYMELSSLRSEDTAVYYCARDHYGHYFYDVWGQGTLVTVSS VL: DIVMTQSPDSLAVSLGERATINCKSSQSLLHARTGKNHLAWYQQKPGQPPKLLIYWASTRESGVPDRFSGSGSGTDFTLTISSLQAEDVAVYYCKQSHSHRTFGGGTKVEIK — recorded MFI pH 7.4 = 51
